Where these numbers come from: ChEMBL document CHEMBL4184225

Measured bioavailability accompanies every entry in the list below.
Assay: Oral bioavailability in Sprague-Dawley rat at 10 mg/kg
Assay type: ADME, organism-based
Settings: in vivo
The figure you give is taken to be in %; do not add the unit.

Worked examples follow.
CCCCNc1nc(N)nc2cccc(C(=O)N(C)Cc3ccccc3)c12 = 1.2
CCCCNc1nc(N)nc2cccc(C(=O)N[C@@H](C)c3ccccc3)c12 = 20

Let us examine a further case.
Read the entry CCCCNc1nc(N)nc2ccccc12 and write its reported bioavailability.
5.4

---

Assay: Cmax in C57BL/6 mouse liver at 1 mg/kg, po administered as single dose
Type: ADME, organism-based
Set-up: dose 1 mg/kg, route oral
Endpoint name: Cmax (ng/mL)
The figure you give is taken to be in ng/mL; do not add the unit.

Read the entry CCCCNc1nc(N)nc2ccccc12 and write its reported Cmax.
207
